Target: Porcine pancreatic lipase (PL) (Sus scrofa)
Construct: purchased Sigma Chemical Co. (St. Louis, MO, USA)
Sequence (P00591 1-450): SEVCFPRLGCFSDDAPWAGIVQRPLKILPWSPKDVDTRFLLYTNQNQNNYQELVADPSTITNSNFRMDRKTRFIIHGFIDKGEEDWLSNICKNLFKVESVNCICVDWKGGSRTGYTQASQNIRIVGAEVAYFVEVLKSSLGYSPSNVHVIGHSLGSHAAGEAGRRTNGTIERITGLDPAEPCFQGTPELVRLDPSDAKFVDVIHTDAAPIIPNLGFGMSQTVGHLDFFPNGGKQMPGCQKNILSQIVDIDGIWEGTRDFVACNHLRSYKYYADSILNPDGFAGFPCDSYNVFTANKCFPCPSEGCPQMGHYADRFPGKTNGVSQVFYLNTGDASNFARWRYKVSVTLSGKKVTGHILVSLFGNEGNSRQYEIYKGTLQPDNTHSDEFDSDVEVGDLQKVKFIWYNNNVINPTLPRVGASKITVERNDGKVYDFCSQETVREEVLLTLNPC
Assay: Assay of PLIs kinetics (reversibility, Lineweaver-Burk plots)
Format: biochemical
Conditions: from slope of Lineweaver-Burk plot vs. peptide concentration; read-out: Ki (competitive inhibition constant)
Where no end group is shown, it is not given here.
Value kind: Ki (mM)
Give a bare numeral; the unit mM is implied.

{"Substance": "KLEGDLK [KLEGDLK]", "Output unit": "mM", "Assay result": 1.4}

Challenge: Given the entry GSPPPSG [GSPPPSG] , report its measured Ki.
Response given: 4.19

Data origin, for the record: paper PMC9403610
